Test system: STAT3
Experiment: STAT3 reporter gene assay (luciferase), LNCaP stable cell line pSTAT3-TA-luc, IL-6 stimulation
Format: cell-based, human
Conditions: Homo sapiens
measurement_kind: IC50 (µM)

Cc1ccc(Oc2cc(NC(=O)c3cc4cc(C(C)(C)S(C)(=O)=O)ccc4s3)cc(Cl)n2)s1	0.078
CC(C)(c1ccc2sc(C(=O)Nc3cc(Cl)nc(Oc4ccc(Cl)c(Cl)c4)c3)cc2c1)S(C)(=O)=O	0.0058
CC(C)(c1ccc2sc(C(=O)Nc3cc(Cl)cc(Oc4ccc(Cl)nc4)c3)cc2c1)S(C)(=O)=O	0.12
CC(C)(c1ccc(Cl)cc1)c1cc(Cl)cc(NC(=O)c2cc3cc(C(C)(C)S(C)(=O)=O)ccc3s2)c1	0.015
CC(C)(c1ccc2sc(C(=O)Nc3cc(Cl)nc(Oc4cc(Cl)cc(Cl)c4)c3)cc2c1)S(C)(=O)=O	0.02
CCCOc1cc(OC(F)(F)F)cc(C(C)(C)c2cc(Cl)cc(NC(=O)c3cc4cc(C(C)(C)S(C)(=O)=O)ccc4s3)c2)c1	0.008

(P) COc1cc(OC(F)(F)F)cc(C(C)(C)c2cc(NC(=O)c3cc4cc(C(C)(C)S(C)(=O)=O)ccc4s3)cc(Cl)n2)c1
(Q) CS(=O)(=O)Cc1ccc2sc(C(=O)Nc3cc(Cl)cc(Oc4ccc(Cl)cc4)c3)cc2c1
Lookup: Consider P and Q . Which of these has its IC50 at a higher number? Indicate which entry you chose by stating its label.
Found: Q
(Q: 0.16 µM, P: 0.011 µM)
